The measurements presented in this section are drawn from the RNAGym collection of RNA variant scans (doi:10.7554/elife.80360).

B1: HDV Ribozyme (parent)
chain: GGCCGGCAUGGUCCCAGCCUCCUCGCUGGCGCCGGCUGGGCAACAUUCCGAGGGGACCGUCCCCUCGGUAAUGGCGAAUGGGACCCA

# Variants of: B1
# method: self-cleavage, relative activity (ratio to wild type); higher = more cleavage; co-transcriptional
measuredEndpoint: self-cleavage
Respond with the number and no other words.

Past entries and their recorded results:
querySequence	self-cleavage
GGCCGGCAUGGUCCCAGCCUCCUCGCUGGCGCCGGCUGGGCAACAUUCCGAGAGGACCGUCCCCUCGAUAAUGGCGAAUGGGACCCA	0.743
GGCCGGCAUGGUCCCAGCCUCCUCGCUGGCGCCGGCUGGGCAACAUUCCGAGGGGACCGUCCCCUCGGUAAUGGCGAAUGGGACCUA	0.935
GGCCGGCAUGGUCCCAGCCUCCUCGCUGGCGCCGGCUGGGCAACAUUGCGAGGGGCCCGUCCCCUCGGUAAUGGCGAAUGGGACCCA	0.875
GGCCGGCAUGGUCCCAGCCUCCUCGUUGGCGCCGGCUGGGCAACAUUCCGAGGGGACCGUCCCCUCGGUAAUGGCGAAAGGGACCCA	1.04
GGCCGGCAUGGUCCCAGCCUCCUCGCUGGCGCCGGCUGGGCAACAUUCCGAUGGGACCGUCCCCUCGGUAAUGGCGAAUGGGACCGA	1.01

Field: next variant
Noted for `GGCCGGCAUGCUCCCAGCCUCCUCGCUGGCGCCGGCUGGGCAACAUUCCGAGGGGACCGUCCCCUAGGUAAUGGCGAAUGGGACCCA` : its self-cleavage reads 0.285
